Assay: Stability confirmation test (impurity formation during storage under severe conditions, liquid chromatography)
Type: physicochemical
Settings: high-humidity exposure condition (60° C. and 95% relative humidity), After 2 weeks
assay-endpoint: Peak area of main component (%)

> print(dat)
                               smiles.input                   assay.endpoint  value.measured
1  CNCc1cn(S(=O)(=O)c2cccc(F)c2)c(-c2ccc(F)cc2F)c1OC.O=C(O)/C=C/C(=O)O  Peak area of main component (%)           99.32
2  CNCc1cn(S(=O)(=O)c2cccc(F)c2)c(-c2ccc(F)cc2F)c1OC.O=C(O)CCC(=O)O  Peak area of main component (%)           99.53
3  CNCc1cn(S(=O)(=O)c2cccc(F)c2)c(-c2ccc(F)cc2F)c1OC.Cl  Peak area of main component (%)           99.80
4  CNCc1cn(S(=O)(=O)c2cccc(F)c2)c(-c2ccc(F)cc2F)c1OC.O=C(O)C(O)C(O)C(=O)O  Peak area of main component (%)           99.43
